Quick reference: IC50 of the listed items.
# System Under Test: Hepatocyte growth factor receptor (Homo sapiens)
# Sequence (P08581 whole entry): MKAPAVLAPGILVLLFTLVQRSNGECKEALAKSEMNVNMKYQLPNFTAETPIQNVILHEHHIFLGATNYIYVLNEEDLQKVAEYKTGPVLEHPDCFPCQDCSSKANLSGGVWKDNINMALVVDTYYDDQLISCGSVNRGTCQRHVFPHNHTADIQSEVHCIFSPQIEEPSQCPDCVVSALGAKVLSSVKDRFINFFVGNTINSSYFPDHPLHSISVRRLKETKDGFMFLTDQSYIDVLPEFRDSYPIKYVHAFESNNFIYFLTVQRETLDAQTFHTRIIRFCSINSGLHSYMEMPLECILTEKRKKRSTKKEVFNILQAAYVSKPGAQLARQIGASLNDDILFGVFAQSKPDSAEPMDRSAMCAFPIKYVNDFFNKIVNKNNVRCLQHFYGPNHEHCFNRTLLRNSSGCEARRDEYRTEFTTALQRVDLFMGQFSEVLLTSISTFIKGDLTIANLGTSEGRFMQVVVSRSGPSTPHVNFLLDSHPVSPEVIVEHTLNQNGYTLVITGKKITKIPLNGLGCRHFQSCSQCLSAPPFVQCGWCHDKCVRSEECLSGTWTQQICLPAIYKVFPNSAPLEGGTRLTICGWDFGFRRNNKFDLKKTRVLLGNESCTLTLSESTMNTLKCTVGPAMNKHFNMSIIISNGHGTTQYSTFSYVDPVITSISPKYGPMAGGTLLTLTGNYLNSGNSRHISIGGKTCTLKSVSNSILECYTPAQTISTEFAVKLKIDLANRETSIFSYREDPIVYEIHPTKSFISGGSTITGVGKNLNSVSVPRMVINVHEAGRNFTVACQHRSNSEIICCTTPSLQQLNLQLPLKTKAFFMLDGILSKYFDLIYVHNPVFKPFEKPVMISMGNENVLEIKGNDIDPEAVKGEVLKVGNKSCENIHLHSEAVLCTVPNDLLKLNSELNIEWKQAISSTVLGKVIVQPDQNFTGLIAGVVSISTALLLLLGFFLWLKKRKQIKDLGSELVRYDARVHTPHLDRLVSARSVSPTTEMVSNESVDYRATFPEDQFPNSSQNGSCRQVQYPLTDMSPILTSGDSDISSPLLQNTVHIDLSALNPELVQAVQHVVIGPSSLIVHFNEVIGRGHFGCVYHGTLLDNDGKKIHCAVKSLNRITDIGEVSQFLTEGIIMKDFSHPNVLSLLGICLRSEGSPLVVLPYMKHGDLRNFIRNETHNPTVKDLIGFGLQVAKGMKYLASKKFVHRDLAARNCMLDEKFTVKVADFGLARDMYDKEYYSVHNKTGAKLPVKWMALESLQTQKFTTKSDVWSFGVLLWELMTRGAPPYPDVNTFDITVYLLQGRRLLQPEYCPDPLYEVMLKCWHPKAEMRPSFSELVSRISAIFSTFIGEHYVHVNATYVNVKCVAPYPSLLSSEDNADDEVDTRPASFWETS
# Assay Name: Inhibition of GST-tagged c-Met (unknown origin) assessed as phosphotyrosine levels preincubated foe 15 mins followed by addition of poly(glutamic acid-tyrosine (4:1)) as substrate and ATP by ELISA
Number in nM, nothing else.

O=C(Cc1ccc(O)c(F)c1)N/N=C1\C(=O)Nc2c(Cl)ccc(Cl)c21    9

As a next step, examine the molecule that follows.
Form: item O=C(Cc1ccc(O)c(Cl)c1)N/N=C1\C(=O)Nc2c(Cl)ccc(Cl)c21 ; test system Hepatocyte growth factor receptor (Homo sapiens); IC50: 9
